Biological target: CCKA receptor (Rattus norvegicus)
Construct: Pancreatic membranes were prepared in a similar way but by Charpentier et al; from tissue; host or cells: rat pancreas membranes
Sequence (P30551 1-444): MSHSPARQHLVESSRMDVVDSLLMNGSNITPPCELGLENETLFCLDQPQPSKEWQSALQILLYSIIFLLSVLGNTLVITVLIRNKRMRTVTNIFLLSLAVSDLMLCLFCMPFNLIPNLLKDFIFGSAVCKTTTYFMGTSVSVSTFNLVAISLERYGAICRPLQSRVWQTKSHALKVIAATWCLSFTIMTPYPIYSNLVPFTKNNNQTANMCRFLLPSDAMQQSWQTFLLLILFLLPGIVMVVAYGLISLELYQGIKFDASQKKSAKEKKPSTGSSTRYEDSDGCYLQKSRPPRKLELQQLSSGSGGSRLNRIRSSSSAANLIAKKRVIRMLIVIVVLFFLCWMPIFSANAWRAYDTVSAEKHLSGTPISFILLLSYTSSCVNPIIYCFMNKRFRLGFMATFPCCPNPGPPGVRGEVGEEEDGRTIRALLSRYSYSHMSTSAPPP
Assay: 125I-CCK-8 receptor binding assay, CCKA (rat pancreas membranes)
RESULT TYPE: IC50

Asked: Request: IC50, test system CCKA receptor (Rattus norvegicus), entry "Cc1c(NC(=O)c2c[nH]c3ccccc23)c(=O)n(-c2ccccc2)n1C"
Given back: 2000 nM
